# Assay System: Cav1.2/β3/α2δ (Homo sapiens, UniProt Q13936)
# Construct: expressed in transfected cells; host or cells: Xenopus laevis oocytes (cRNA injection, Cav1.2:β3:α2δ 2:1:1 by weight)
# Sequence (Q13936 1-2138 isoform Q13936-20): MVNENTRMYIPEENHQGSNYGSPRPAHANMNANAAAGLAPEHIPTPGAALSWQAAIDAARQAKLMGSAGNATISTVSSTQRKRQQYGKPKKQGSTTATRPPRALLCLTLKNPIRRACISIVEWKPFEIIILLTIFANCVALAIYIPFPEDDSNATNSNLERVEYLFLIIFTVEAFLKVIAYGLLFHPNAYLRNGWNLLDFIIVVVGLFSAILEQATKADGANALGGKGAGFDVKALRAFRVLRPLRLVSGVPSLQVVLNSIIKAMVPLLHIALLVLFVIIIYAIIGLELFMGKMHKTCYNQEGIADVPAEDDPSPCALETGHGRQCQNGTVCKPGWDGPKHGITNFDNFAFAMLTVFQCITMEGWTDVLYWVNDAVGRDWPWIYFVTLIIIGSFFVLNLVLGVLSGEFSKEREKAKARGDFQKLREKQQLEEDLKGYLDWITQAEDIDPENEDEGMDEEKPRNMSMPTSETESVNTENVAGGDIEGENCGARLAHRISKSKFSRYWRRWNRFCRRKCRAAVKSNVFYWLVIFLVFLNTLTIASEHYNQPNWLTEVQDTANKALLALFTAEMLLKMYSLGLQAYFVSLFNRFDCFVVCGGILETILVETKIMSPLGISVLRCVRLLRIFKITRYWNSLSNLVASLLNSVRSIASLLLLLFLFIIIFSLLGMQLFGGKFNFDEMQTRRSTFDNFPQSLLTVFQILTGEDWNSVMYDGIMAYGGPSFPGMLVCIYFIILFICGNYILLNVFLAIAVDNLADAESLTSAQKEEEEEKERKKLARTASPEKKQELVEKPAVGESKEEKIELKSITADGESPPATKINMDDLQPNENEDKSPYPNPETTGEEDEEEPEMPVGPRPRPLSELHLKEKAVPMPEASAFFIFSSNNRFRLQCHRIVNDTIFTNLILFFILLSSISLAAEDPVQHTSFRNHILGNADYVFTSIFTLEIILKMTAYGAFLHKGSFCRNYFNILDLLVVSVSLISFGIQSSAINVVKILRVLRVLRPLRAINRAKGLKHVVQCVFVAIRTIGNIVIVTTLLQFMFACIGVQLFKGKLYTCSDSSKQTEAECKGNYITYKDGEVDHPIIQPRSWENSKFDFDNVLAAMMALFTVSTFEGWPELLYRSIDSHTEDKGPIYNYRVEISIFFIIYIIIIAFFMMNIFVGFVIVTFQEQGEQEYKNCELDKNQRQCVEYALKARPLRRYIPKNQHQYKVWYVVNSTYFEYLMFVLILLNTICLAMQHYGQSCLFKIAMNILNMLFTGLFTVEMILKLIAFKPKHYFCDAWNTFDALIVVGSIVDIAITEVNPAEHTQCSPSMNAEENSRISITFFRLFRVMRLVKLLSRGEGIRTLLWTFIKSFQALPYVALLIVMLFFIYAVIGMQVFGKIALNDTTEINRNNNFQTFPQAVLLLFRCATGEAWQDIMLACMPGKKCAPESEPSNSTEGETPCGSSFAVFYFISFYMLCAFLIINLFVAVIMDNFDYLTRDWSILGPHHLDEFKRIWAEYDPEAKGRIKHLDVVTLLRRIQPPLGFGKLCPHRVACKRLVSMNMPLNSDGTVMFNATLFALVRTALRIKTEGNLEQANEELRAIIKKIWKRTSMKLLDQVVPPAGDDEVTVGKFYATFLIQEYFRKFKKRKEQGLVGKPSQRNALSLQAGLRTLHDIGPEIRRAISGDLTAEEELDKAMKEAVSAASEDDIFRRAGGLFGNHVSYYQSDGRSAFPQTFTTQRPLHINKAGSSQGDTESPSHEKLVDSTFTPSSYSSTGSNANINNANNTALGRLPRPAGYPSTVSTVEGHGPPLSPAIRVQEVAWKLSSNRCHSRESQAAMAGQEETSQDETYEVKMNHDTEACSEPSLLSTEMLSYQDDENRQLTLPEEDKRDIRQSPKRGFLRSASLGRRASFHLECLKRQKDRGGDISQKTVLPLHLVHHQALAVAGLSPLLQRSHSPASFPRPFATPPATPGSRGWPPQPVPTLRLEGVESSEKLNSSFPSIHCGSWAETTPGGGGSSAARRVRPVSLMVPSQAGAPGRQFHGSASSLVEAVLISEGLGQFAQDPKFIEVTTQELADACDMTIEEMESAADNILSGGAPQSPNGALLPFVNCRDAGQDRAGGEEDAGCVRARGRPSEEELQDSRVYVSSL
# Sequence (P54286 whole entry partner): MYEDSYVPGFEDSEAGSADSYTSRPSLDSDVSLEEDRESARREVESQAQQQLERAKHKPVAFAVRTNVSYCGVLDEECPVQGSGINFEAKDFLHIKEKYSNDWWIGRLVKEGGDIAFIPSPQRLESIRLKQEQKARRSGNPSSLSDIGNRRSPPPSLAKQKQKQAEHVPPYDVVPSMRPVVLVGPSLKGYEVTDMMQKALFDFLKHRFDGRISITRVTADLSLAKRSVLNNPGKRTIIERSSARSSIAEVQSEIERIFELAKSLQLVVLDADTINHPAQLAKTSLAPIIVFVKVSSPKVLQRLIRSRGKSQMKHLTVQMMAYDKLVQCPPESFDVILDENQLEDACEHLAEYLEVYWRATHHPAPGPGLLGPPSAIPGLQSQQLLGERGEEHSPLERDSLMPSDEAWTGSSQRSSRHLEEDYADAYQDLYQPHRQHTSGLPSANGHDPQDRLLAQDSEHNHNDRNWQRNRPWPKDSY
# Sequence (P13806 27-960 partner): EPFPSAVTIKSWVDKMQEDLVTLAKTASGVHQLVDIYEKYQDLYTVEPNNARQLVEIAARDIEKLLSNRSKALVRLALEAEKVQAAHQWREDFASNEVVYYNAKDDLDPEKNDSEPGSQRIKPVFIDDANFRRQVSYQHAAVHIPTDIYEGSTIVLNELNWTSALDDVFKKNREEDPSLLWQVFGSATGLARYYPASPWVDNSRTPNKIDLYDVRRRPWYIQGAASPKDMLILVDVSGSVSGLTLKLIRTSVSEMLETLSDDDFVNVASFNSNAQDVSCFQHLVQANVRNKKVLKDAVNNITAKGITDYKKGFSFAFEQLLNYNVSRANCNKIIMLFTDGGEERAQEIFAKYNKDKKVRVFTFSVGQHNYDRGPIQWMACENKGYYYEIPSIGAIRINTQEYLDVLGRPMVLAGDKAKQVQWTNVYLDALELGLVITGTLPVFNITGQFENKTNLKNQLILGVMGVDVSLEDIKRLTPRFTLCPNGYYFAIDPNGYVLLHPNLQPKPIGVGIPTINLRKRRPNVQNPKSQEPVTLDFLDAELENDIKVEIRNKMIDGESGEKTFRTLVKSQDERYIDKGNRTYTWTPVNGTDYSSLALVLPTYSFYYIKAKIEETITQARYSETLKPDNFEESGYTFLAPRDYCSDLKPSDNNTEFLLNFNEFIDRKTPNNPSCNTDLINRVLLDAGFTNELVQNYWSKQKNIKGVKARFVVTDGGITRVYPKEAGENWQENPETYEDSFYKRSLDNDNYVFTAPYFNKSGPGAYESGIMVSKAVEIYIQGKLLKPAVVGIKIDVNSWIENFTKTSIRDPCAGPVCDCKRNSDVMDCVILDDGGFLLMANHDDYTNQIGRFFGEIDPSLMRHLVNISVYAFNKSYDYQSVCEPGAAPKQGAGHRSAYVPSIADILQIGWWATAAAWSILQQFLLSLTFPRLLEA
# Sequence (P13806 961-1106 partner): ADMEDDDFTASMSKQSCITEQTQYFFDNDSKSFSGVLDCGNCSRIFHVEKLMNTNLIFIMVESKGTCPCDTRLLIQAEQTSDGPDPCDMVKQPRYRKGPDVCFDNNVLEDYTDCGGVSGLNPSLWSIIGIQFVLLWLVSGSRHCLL
# Method Summary: Two-electrode voltage clamp of Cav1.2/β3/α2δ expressed in Xenopus oocytes (Ba2+ as charge carrier)
# Format: cell-based
# Conditions: 7 μM
Assign class by ΔV0.5 (voltage dependence of inactivation): not lower than 0.2 mV means t; lower than 0.2 mV means f.

Input Smiles: CCCCC/C=C\C/C=C\CCCCCCCC(=O)NCC(=O)O
Category Label: f

Input Smiles: CCCCC/C=C\C/C=C\C/C=C\C/C=C\CCCC(=O)NCCS(=O)(=O)O
Category Label: t

Input Smiles: CCCCC/C=C\C/C=C\CC/C=C\CCCC(=O)NCCS(=O)(=O)O
Category Label: t

Input Smiles: CCCCC/C=C\C/C=C\CC/C=C\CCCC(=O)NCC(=O)O
Category Label: f

Input Smiles: CCCCC/C=C\C/C=C\CCCCCCCC(=O)NCCS(=O)(=O)O
Category Label: f

Input Smiles: CC/C=C\C/C=C\C/C=C\C/C=C\C/C=C\C/C=C\CCC(=O)NCC(=O)O
Category Label: t

----------
# Assay System: Cav1.2/β3/α2δ (Homo sapiens, UniProt Q13936)
# Construct: expressed in transfected cells; host or cells: Xenopus laevis oocytes (cRNA injection, Cav1.2:β3:α2δ 2:1:1 by weight)
# Method Summary: Two-electrode voltage clamp of Cav1.2/β3/α2δ expressed in Xenopus oocytes (Ba2+ as charge carrier)
# Format: cell-based
# Conditions: 0.7 μM
Endpoint Label: ΔV0.5 (voltage dependence of inactivation) (mV)

Input Smiles: CCCCC/C=C\C/C=C\CCCCCCCC(=O)NCCS(=O)(=O)O
Numeric Value: 0.9

Input Smiles: CCCCC/C=C\C/C=C\CC/C=C\CCCC(=O)NCCS(=O)(=O)O
Numeric Value: 3.9

Input Smiles: CCCCC/C=C\C/C=C\C/C=C\C/C=C\CCCC(=O)NCCS(=O)(=O)O
Numeric Value: 0.5

Input Smiles: CCCCC/C=C\C/C=C\CC/C=C\CCCC(=O)NCC(=O)O
Numeric Value: -3.3

----------
The reader will find reported ICa I/I0 values listed item by item below.
# Assay System: Cav1.2/β3/α2δ (Homo sapiens)
# Construct: expressed in transfected cells; host or cells: Xenopus laevis oocytes (cRNA injection, Cav1.2:β3:α2δ 2:1:1 by weight)
# Method Summary: Two-electrode voltage clamp of Cav1.2/β3/α2δ expressed in Xenopus oocytes (Ba2+ as charge carrier)
# Assay type: cell-based
# Conditions: 0.7 μM; relative current at 0 mV

Compound: CCCCC/C=C\C/C=C\CCCCCCCC(=O)NCCS(=O)(=O)O [Lin-taurine, Linoleoyl taurine]
ICa I/I0: 0.9
--
Compound: CC/C=C\C/C=C\C/C=C\C/C=C\C/C=C\C/C=C\CCC(=O)NCCS(=O)(=O)O [DHA-taurine]
ICa I/I0: 1.0
--
Compound: CCCCC/C=C\C/C=C\CC/C=C\CCCC(=O)NCCS(=O)(=O)O [Pin-taurine]
ICa I/I0: 0.8
--
Compound: CCCCC/C=C\C/C=C\CC/C=C\CCCC(=O)NCC(=O)O [Pin-glycine]
ICa I/I0: 0.8
--
Compound: CCCCC/C=C\C/C=C\CCCCCCCC(=O)NCC(=O)O [Lin-glycine]
ICa I/I0: 0.9
--
Compound: CCCCC/C=C\C/C=C\C/C=C\C/C=C\CCCC(=O)NCCS(=O)(=O)O [N-AT, N-arachidonoyl taurine]
ICa I/I0: 0.9
--
Compound: CC/C=C\C/C=C\C/C=C\C/C=C\C/C=C\C/C=C\CCC(=O)NCC(=O)O [DHA-glycine, docosahexaenoyl glycine]
ICa I/I0: 1.0

----------
# Assay System: Kv7.1/KCNE1 (Homo sapiens, UniProt P51787)
# Construct: cRNA encoding Kv7.1 (UniProt: P51787), KCNE1 (UniProt: P15382.1); expressed in transfected cells; host or cells: Xenopus laevis oocytes (cRNA injection, Kv7.1:KCNE1 3:1 by weight)
# Method Summary: Two-electrode voltage clamp of Kv7.1/KCNE1 expressed in Xenopus oocytes
# Assay type: cell-based
# Conditions: 2 μM
Endpoint Label: Gmax/Gmax0

Input Smiles: CC/C=C\C/C=C\C/C=C\C/C=C\C/C=C\C/C=C\CCC(=O)NCC(=O)O
Assay System: Kv7.1/KCNE1 (Homo sapiens, UniProt P51787)
Endpoint Label: Gmax/Gmax0
Numeric Value: 1.7
--
Input Smiles: CCCCC/C=C\C/C=C\C/C=C\C/C=C\CCCC(=O)NCCS(=O)(=O)O
Assay System: Kv7.1/KCNE1 (Homo sapiens, UniProt P51787)
Endpoint Label: Gmax/Gmax0
Numeric Value: 0.9
--
Input Smiles: CCCCC/C=C\C/C=C\CC/C=C\CCCC(=O)NCC(=O)O
Assay System: Kv7.1/KCNE1 (Homo sapiens, UniProt P51787)
Endpoint Label: Gmax/Gmax0
Numeric Value: 1.3
--
Input Smiles: CC/C=C\C/C=C\C/C=C\C/C=C\C/C=C\C/C=C\CCC(=O)NCCS(=O)(=O)O
Assay System: Kv7.1/KCNE1 (Homo sapiens, UniProt P51787)
Endpoint Label: Gmax/Gmax0
Numeric Value: 1.6
--
Input Smiles: CCCCC/C=C\C/C=C\CC/C=C\CCCC(=O)NCCS(=O)(=O)O
Assay System: Kv7.1/KCNE1 (Homo sapiens, UniProt P51787)
Endpoint Label: Gmax/Gmax0
Numeric Value: 2.0
--
Input Smiles: CCCCC/C=C\C/C=C\CCCCCCCC(=O)NCC(=O)O
Assay System: Kv7.1/KCNE1 (Homo sapiens, UniProt P51787)
Endpoint Label: Gmax/Gmax0
Numeric Value: 1.8
--
Input Smiles: CCCCC/C=C\C/C=C\CCCCCCCC(=O)NCCS(=O)(=O)O
Assay System: Kv7.1/KCNE1 (Homo sapiens, UniProt P51787)
Endpoint Label: Gmax/Gmax0
Numeric Value: 1.7

----------
# Assay System: Kv7.1/KCNE1 (Homo sapiens)
# Construct: cRNA encoding Kv7.1 (UniProt: P51787), KCNE1 (UniProt: P15382.1); expressed in transfected cells; host or cells: Xenopus laevis oocytes (cRNA injection, Kv7.1:KCNE1 3:1 by weight)
# Method Summary: Two-electrode voltage clamp of Kv7.1/KCNE1 expressed in Xenopus oocytes
# Type: cell-based
# Conditions: 0.7 μM; relative current at 0 mV
Endpoint Label: IKs I/I0

Input Smiles: CCCCC/C=C\C/C=C\C/C=C\C/C=C\CCCC(=O)NCCS(=O)(=O)O
Assay System: Kv7.1/KCNE1 (Homo sapiens)
Numeric Value: 1.0
//
Input Smiles: CC/C=C\C/C=C\C/C=C\C/C=C\C/C=C\C/C=C\CCC(=O)NCC(=O)O
Assay System: Kv7.1/KCNE1 (Homo sapiens)
Numeric Value: 1.7
//
Input Smiles: CCCCC/C=C\C/C=C\CC/C=C\CCCC(=O)NCC(=O)O
Assay System: Kv7.1/KCNE1 (Homo sapiens)
Numeric Value: 1.0
//
Input Smiles: CCCCC/C=C\C/C=C\CC/C=C\CCCC(=O)NCCS(=O)(=O)O
Assay System: Kv7.1/KCNE1 (Homo sapiens)
Numeric Value: 1.4
//
Input Smiles: CCCCC/C=C\C/C=C\CCCCCCCC(=O)NCCS(=O)(=O)O
Assay System: Kv7.1/KCNE1 (Homo sapiens)
Numeric Value: 1.2
//
Input Smiles: CCCCC/C=C\C/C=C\CCCCCCCC(=O)NCC(=O)O
Assay System: Kv7.1/KCNE1 (Homo sapiens)
Numeric Value: 1.4
//
Input Smiles: CC/C=C\C/C=C\C/C=C\C/C=C\C/C=C\C/C=C\CCC(=O)NCCS(=O)(=O)O
Assay System: Kv7.1/KCNE1 (Homo sapiens)
Numeric Value: 1.4

----------
# Assay System: Kv7.1/KCNE1 (Homo sapiens, UniProt P51787)
# Construct: cRNA encoding Kv7.1 (UniProt: P51787), KCNE1 (UniProt: P15382.1); expressed in transfected cells; host or cells: Xenopus laevis oocytes (cRNA injection, Kv7.1:KCNE1 3:1 by weight)
# Method Summary: Two-electrode voltage clamp of Kv7.1/KCNE1 expressed in Xenopus oocytes
# Format: cell-based
# Conditions: 0.2 μM
Endpoint Label: Gmax/Gmax0

Input Smiles: CC/C=C\C/C=C\C/C=C\C/C=C\C/C=C\C/C=C\CCC(=O)NCC(=O)O
Numeric Value: 1.3
--
Input Smiles: CCCCC/C=C\C/C=C\CCCCCCCC(=O)NCC(=O)O
Numeric Value: 1.2
--
Input Smiles: CCCCC/C=C\C/C=C\CC/C=C\CCCC(=O)NCCS(=O)(=O)O
Numeric Value: 1.2
--
Input Smiles: CCCCC/C=C\C/C=C\CC/C=C\CCCC(=O)NCC(=O)O
Numeric Value: 1.0
--
Input Smiles: CCCCC/C=C\C/C=C\CCCCCCCC(=O)NCCS(=O)(=O)O
Numeric Value: 1.0
--
Input Smiles: CC/C=C\C/C=C\C/C=C\C/C=C\C/C=C\C/C=C\CCC(=O)NCCS(=O)(=O)O
Numeric Value: 1.1
--
Input Smiles: CCCCC/C=C\C/C=C\C/C=C\C/C=C\CCCC(=O)NCCS(=O)(=O)O
Numeric Value: 1.0
